- testSummary: Pharmacokinetic study in rats
- appliedConditions: rat, plasma, po, 3 mg/kg
Entries get a class label from measured Cmax. See ranges: class 1 = under 100 ng/mL, class 2 = from 100 ng/mL up to 300 ng/mL, class 3 = 300 ng/mL and over

[ask] # bin lookup: classify COc1cc2c(cc1Nc1ncc(Cl)c(Nc3cccnc3N3CCCC3=O)n1)OC[C@H]1CN(C3CCN(C(C)=O)CC3)CCN21 [Compound E11R] by its Cmax
[reply] class 3

[ask] # bin lookup: classify COc1cc2c(cc1Nc1ncc(C(F)(F)F)c(CCc3ccccc3CC(N)=O)n1)OC[C@H]1CN(C(C)=O)CCN21 [Compound B7R] by its Cmax
[reply] class 3

[ask] # bin lookup: classify COc1cc2c(cc1Nc1ncc(Cl)c(Nc3cccnc3N3CCCC3=O)n1)OC[C@H]1CN(C3CCOCC3)CCN21 [Compound E4R] by its Cmax
[reply] class 1

[ask] # bin lookup: classify CNC(=O)c1ccccc1Nc1cc(Nc2cc3c(cc2OC)N2CCN(C4CCOCC4)C[C@H]2CO3)ncc1C(F)(F)F [Compound D1S] by its Cmax
[reply] class 3

[ask] # bin lookup: classify CNC(=O)c1ccccc1Nc1cc(Nc2cc3c(cc2OC)N2CCN(C4CN(C)C4)C[C@H]2CO3)ncc1C(F)(F)F [Compound D4S] by its Cmax
[reply] class 2

[ask] # bin lookup: classify COc1cc2c(cc1Nc1ncc(Cl)c(Nc3ccccc3S(=O)(=O)C(C)C)n1)OC[C@@H]1CN(C3CCN(C)CC3)CCN21 [Compound C2S] by its Cmax
[reply] class 2

[ask] # bin lookup: classify COc1cc2c(cc1Nc1ncc(Cl)c(Nc3cccnc3N3CCCC3=O)n1)OC[C@H]1CN(C)CCN21 [Compound E2R] by its Cmax
[reply] class 1

[ask] # bin lookup: classify CCN1CCN2c3cc(OC)c(Nc4ncc(C(F)(F)F)c(CCc5ccccc5CC(N)=O)n4)cc3OC[C@H]2C1 [Compound B5R] by its Cmax
[reply] class 2

Now for a further molecule.
[ask] # bin lookup: classify CCc1cc2c(cc1Nc1ncc(C(F)(F)F)c(NCCCN3CCCCC3=O)n1)OC[C@H]1CN(C3CCN(C)CC3)CCN21 [Compound A6R] by its Cmax
[reply] class 1
